Tested on: Staphylococcus aureus
Experiment: Antibacterial activity against Staphylococcus aureus 144 assessed as inhibition of bacterial growth measured after 24 hrs by broth dilution method
Type: functional
# MIC listing for each entry below
Provide only the numeric value, understood in µg/mL.

The reported Staphylococcus aureus MIC of `C=C[C@]1(C)C[C@@H](OC(=O)CSc2nnc(C)n2/N=C/c2ccc(N(CC)CC)cc2)[C@]2(C)[C@H](C)CC[C@]3(CCC(=O)[C@H]32)[C@@H](C)[C@@H]1O` is 4

The reported Staphylococcus aureus MIC of `C=C[C@]1(C)C[C@@H](OC(=O)CSc2nnc(C)n2/N=C/c2ccccc2Cl)[C@]2(C)[C@H](C)CC[C@]3(CCC(=O)[C@H]32)[C@@H](C)[C@@H]1O` is 2

The reported Staphylococcus aureus MIC of `C=C[C@]1(C)C[C@@H](OC(=O)CSc2nnc(C)n2/N=C/c2cccc(Cl)c2)[C@]2(C)[C@H](C)CC[C@]3(CCC(=O)[C@H]32)[C@@H](C)[C@@H]1O` is 2

Further cases:
The reported Staphylococcus aureus MIC of `C=C[C@]1(C)C[C@@H](OC(=O)CSc2nnc(C)n2/N=C/c2ccc(O)cc2)[C@]2(C)[C@H](C)CC[C@]3(CCC(=O)[C@H]32)[C@@H](C)[C@@H]1O` is 1

The reported Staphylococcus aureus MIC of C=C[C@]1(C)C[C@@H](OC(=O)CO)[C@]2(C)[C@H](C)CC[C@]3(CCC(=O)[C@H]32)[C@@H](C)[C@@H]1O [PLEUROMULIN] is 2

The reported Staphylococcus aureus MIC of `C=C[C@]1(C)C[C@@H](OC(=O)CSc2nnc(C)n2/N=C/c2ccc(C#N)cc2)[C@]2(C)[C@H](C)CC[C@]3(CCC(=O)[C@H]32)[C@@H](C)[C@@H]1O` is 2

* * *

Tested on: Staphylococcus aureus
Assay: Antibacterial activity against Staphylococcus aureus 144 assessed as inhibition of bacterial growth measured after 24 hrs by broth dilution method
Type: functional
VALUE TYPE: MIC (µg/mL)
Provide only the numeric value, understood in µg/mL.

Some molecules with recorded MIC:
The reported value for C=C[C@]1(C)C[C@@H](OC(=O)CSCCN(CC)CC)[C@]2(C)[C@H](C)CC[C@]3(CCC(=O)[C@H]32)[C@@H](C)[C@@H]1O [TIAMULIN] in terms of MIC is 1

The reported value for `C=C[C@]1(C)C[C@@H](OC(=O)CSc2nnc(C)n2/N=C/c2ccccc2F)[C@]2(C)[C@H](C)CC[C@]3(CCC(=O)[C@H]32)[C@@H](C)[C@@H]1O` in terms of MIC is 2

The reported value for `C=C[C@]1(C)C[C@@H](OC(=O)CSc2nnc(C)n2/N=C/c2ccc(F)cc2)[C@]2(C)[C@H](C)CC[C@]3(CCC(=O)[C@H]32)[C@@H](C)[C@@H]1O` in terms of MIC is 2

The reported value for `C=C[C@]1(C)C[C@@H](OC(=O)CSc2nnc(C)n2/N=C/c2ccc(C(F)(F)F)cc2)[C@]2(C)[C@H](C)CC[C@]3(CCC(=O)[C@H]32)[C@@H](C)[C@@H]1O` in terms of MIC is 4

The reported value for `C=C[C@]1(C)C[C@@H](OC(=O)CSc2nnc(C)n2/N=C/c2ccc(C)cc2)[C@]2(C)[C@H](C)CC[C@]3(CCC(=O)[C@H]32)[C@@H](C)[C@@H]1O` in terms of MIC is 2

Further cases:
The reported value for `C=C[C@]1(C)C[C@@H](OC(=O)CSc2nnc(C)n2/N=C/c2ccccc2[N+](=O)[O-])[C@]2(C)[C@H](C)CC[C@]3(CCC(=O)[C@H]32)[C@@H](C)[C@@H]1O` in terms of MIC is 2

The reported value for `C=C[C@]1(C)C[C@@H](OC(=O)CSc2nnc(C)n2/N=C/c2ccc(-c3ccccn3)cc2)[C@]2(C)[C@H](C)CC[C@]3(CCC(=O)[C@H]32)[C@@H](C)[C@@H]1O` in terms of MIC is 1

The reported value for `C=C[C@]1(C)C[C@@H](OC(=O)CSc2nnc(C)n2/N=C/c2ccccc2C)[C@]2(C)[C@H](C)CC[C@]3(CCC(=O)[C@H]32)[C@@H](C)[C@@H]1O` in terms of MIC is 2
